Let's look at some compounds and their measured PC biosynthesis % of Control ± SEM.
Tested on: rat red blood cells
Assay: Rat RBC PC biosynthesis
Assay type: cell-based
Settings: rat RBC's, 10 minutes incubation
ASSAY ENDPOINT: PC biosynthesis % of Control ± SEM

>>> df
                                   compound  experimental_target                 reading
0                                       CCO  rat red blood cells   374 ± 19 % of Control
1                        CC(=O)Nc1ccc(O)cc1  rat red blood cells   655 ± 26 % of Control
2                             ClC(Cl)(Cl)Br  rat red blood cells   533 ± 29 % of Control
3  COC(=O)[C@H]1[C@@H](OC(=O)c2ccccc2)C[C@@H]2CC[C@H]1N2C  rat red blood cells    458 ± 7 % of Control
4  CCCCCc1cc(O)c2c(c1)OC(C)(C)[C@@H]1CCC(C)=C[C@@H]21 [THC, Δ-9-tetrahydrocannabinol]  rat red blood cells  1142 ± 65 % of Control
5                                     C=CCO  rat red blood cells  1315 ± 99 % of Control

Hello, the source for this data is patent US6858399B2, in case you need it.
